Origin of the recorded values: patent US20230055711A1

Target System: recombinant human BCMA-his protein (Acro biosystems, Cat #BCA-H522Y) (human) (UniProt Q02223)
Sequence (Q02223 1-54, stated change not applied): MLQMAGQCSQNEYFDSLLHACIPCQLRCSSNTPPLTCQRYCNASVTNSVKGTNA
Method Summary: BLI Octet RED96, antibody on AHC sensor, BCMA-his in solution
Measured Metric: Kd (nM)
Answers are plain numbers, in nM.

binder="huB1H2-V23 (antibody, human IgG1, kappa, V domains shown) VH: QVQLVQSGAEVKKPGASVKVSCKASGYTLTNYVMHWVRQAPGQGLEWIGFIIPFNDGTKYNEHFKGRVTITRDKSISTAYMQLSSLRSEDTAVYYCARYDFEGYFDVWGQGTLVTVSS VL: DIQMTQSPSSLSASVGDRVTITCSASQDITNFLNWYQQKPGKAPKLLIYSTSRLHSGVPSRFSGSGSGTDYTLTISSLQPEDIATYYCQQYSNLPWTFGQGTKVEIKR" measured_metric=Kd measured=20.4

Provide reported Kd for each item, in the same order as listed.
1. huB1H2-V13 (antibody, human IgG1, kappa, V domains shown) VH: EVQLVQSGAEVKKPGSSVKVSCKASGYTLTNYVMHWMRQAPGQGLEWIGFIIPFNDGTKYNEHFKGRATLTSDKSTNTAYMELSSLRSEDTAVYYCARYDFEGYFDVWGAGTLVTVSS VL: DIQMTQSPSSLSASVGDRVTITCSASQDITNFLNWYQQKPGKAVKLLIYSTSRLHSGVPSRFSGSGSGTDFTLTISSLQPEDIATYYCQQYSNLPWTFGQGTKVEIKR
2. huB1H2-V10 (antibody, human IgG1, kappa, V domains shown, Humanized IgG1/kappa; cell supernatant in the Octet assay, purified antibody in Biacore, ELISA and FACS) VH: QVQLVQSGAEVKKPGASVKVSCKASGYTLTNYVMHWVRQAPGQGLEWIGFIIPFNDGTKYNEHFKGRVTITSDTSISTAYMQLSSLRSEDTAVYYCARYDFEGYFDVWGQGTLVTVSS VL: DIQMTQSPSSLSASVGDRVTITCSASQDITNFLNWYQQKPGKAPKLLIYSTSRLHSGVPSRFSGSGSGTDFTLTISSLQPEDIATYYCQQYSNLPWTFGQGTKVEIKR

1: 2.21; 2: 2.02
